# inhibition at 25 µM per entry
TARGET ENTITY: recombinant human PAI-1 (Homo sapiens, UniProt P05121)
Sequence (P05121 24-402): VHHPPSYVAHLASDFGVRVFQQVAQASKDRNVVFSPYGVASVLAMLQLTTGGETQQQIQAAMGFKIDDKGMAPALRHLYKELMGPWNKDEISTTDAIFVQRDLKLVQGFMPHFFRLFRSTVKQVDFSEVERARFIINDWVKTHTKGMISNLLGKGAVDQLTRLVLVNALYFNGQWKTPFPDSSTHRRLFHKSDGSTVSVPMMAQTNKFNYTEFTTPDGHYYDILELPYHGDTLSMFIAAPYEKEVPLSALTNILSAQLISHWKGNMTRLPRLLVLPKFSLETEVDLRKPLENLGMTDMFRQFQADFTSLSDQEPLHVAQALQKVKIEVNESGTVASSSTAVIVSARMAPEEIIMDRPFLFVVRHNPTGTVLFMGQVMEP
ASSAY TEXT: biochemical
EXPERIMENTAL CONDITIONS: read-out: Inhibition Rate of PAI-1 Activity (%)

Item O=C(O)C(=O)N(Cc1ccc(-c2ccccc2)cc1)c1ccc(-c2ccc(OC(F)(F)F)cc2)cc1 has what recorded inhibition at 25 µM?
> 99%

Look at this compound and give its reported inhibition at 25 µM. O=C(O)C(=O)N(Cc1ccc(F)cc1)c1ccc(-c2ccc(OC(F)(F)F)cc2)cc1
38%

Find the recorded inhibition at 25 µM belonging to CC(C)(C)c1ccc(N(C(=O)C(=O)O)c2cccc(Oc3ccc(OC(F)(F)F)cc3)c2)cc1 and report it.
94%

---

TARGET ENTITY: recombinant human PAI-1 (Homo sapiens, UniProt P05121)
ASSAY TEXT: biochemical
EXPERIMENTAL CONDITIONS: read-out: Inhibition Rate of PAI-1 Activity (%)
Quick rule: inhibition at 5 µM of at least 30% means Fulfilled, below that means Not fulfilled.

Would you please look over these solved cases?
INSERT INTO results (molecule, label_value) VALUES
  ('Cc1cc(N(C)C)c(-c2ccc(OC(F)(F)F)cc2)cc1N(Cc1ccc(C(C)(C)C)cc1)C(=O)C(=O)O', 'Fulfilled'),
  ('CC(C)(C)c1ccc(CN(C(=O)C(=O)O)c2cc(Oc3ccc(OC(F)(F)F)cc3)cc(C(F)(F)F)c2)cc1', 'Fulfilled'),
  ('CC(C)(C)c1ccc(CN(C(=O)C(=O)O)c2ccccc2Sc2ccc(OC(F)(F)F)cc2)cc1', 'Fulfilled'),
  ('COc1ccc(-c2ccc(OC(F)(F)F)cc2)cc1N(Cc1ccc(C(C)(C)C)cc1)C(=O)C(=O)O', 'Fulfilled'),
  ('Cc1cc(-c2ccc(OC(F)(F)F)cc2)cc(/C=C/C(=O)O)c1OCc1ccc(C(C)(C)C)cc1', 'Not fulfilled'),
  ('CCN(CC)c1ccc(N(Cc2ccc(C(C)(C)C)cc2)C(=O)C(=O)O)cc1-c1ccc(OC(F)(F)F)cc1', 'Fulfilled');

# check: inhibition at 5 µM of CC(C)(C)c1ccc(CN(C(=O)C(=O)O)c2ccc(-c3ccc(F)cc3)cc2)cc1 is greater than or equal to 30%
Not fulfilled

Is the recorded value of inhibition at 5 µM equal to or greater than 30% for this molecule? COc1cc(-c2ccc(OC(F)(F)F)cc2)cc(/C=C/C(=O)O)c1OCc1ccc(C(C)(C)C)cc1
Not fulfilled

# bool: inhibition at 5 µM of O=C(O)COc1cc(-c2ccc(OC(F)(F)F)cc2)ccc1OCCCCc1ccccc1 >= 30%
Fulfilled

Kindly determine if inhibition at 5 µM recorded for O=C(O)CCc1cc(-c2ccc(OC(F)(F)F)cc2)ccc1OCCCOc1ccccc1 is above or exactly 30%.
Fulfilled

Can O=C(O)C(=O)N(CCc1ccccc1)c1ccc(-c2ccc(OC(F)(F)F)cc2)cc1 be said to have inhibition at 5 µM at or above 30%?
Not fulfilled

Check this molecule for inhibition at 5 µM at or above 30%: Cc1cc(C)cc(CN(C(=O)C(=O)O)c2ccc(-c3ccc(OC(F)(F)F)cc3)cc2)c1
Not fulfilled

Does O=C(O)C(=O)N(Cc1ccc(-c2ccccc2)cc1)c1ccc(-c2ccc(OC(F)(F)F)cc2)cc1 have a reported inhibition at 5 µM of at least 30%?
Not fulfilled

Confirm if inhibition at 5 µM reported for the molecule CC(C)(C)c1ccc(Oc2cc(-c3ccc(OC(F)(F)F)cc3)ccc2OC(F)C(=O)O)cc1 (centres unmarked) is 30% or above.
Fulfilled

---

TARGET ENTITY: recombinant human PAI-1 (Homo sapiens, UniProt P05121)
ASSAY TEXT: biochemical
EXPERIMENTAL CONDITIONS: read-out: Inhibition Rate of PAI-1 Activity (%)
molecules and their reported inhibition at 10 µM
Form entry: value (%) — number only.

Use these answered entries as a reference point.
INSERT INTO assay_data (molecule, target_entity, property, data_value) VALUES
  ('COc1cc(-c2ccc(OC(F)(F)F)cc2)cc(CCC(=O)O)c1OCc1ccc(C(C)(C)C)cc1', 'recombinant human PAI-1 (Homo sapiens, UniProt P05121)', 'inhibition at 10 µM', 59),
  ('CN(c1ccc(OC(F)(F)F)cc1)c1ccc(OCc2ccc(C(C)(C)C)cc2)c(CCC(=O)O)c1', 'recombinant human PAI-1 (Homo sapiens, UniProt P05121)', 'inhibition at 10 µM', 79);

State the recorded inhibition at 10 µM for this entry: CCC(Oc1ccc(-c2ccc(OC(F)(F)F)cc2)cc1Oc1ccc(C(C)(C)C)cc1)C(=O)O (stereo not drawn)
87

For the molecule CC(C)(C)c1ccc(CN(C(=O)C(=O)O)c2cc(-c3ccccc3)cc(C(F)(F)F)c2)cc1 , what inhibition at 10 µM is on record?
31

Which inhibition at 10 µM is listed for CC(C)(C)c1ccc(COc2cc(Oc3ccc(OC(F)(F)F)cc3)ccc2/C=C/C(=O)O)cc1 ?
51

Could you tell me which inhibition at 10 µM is on file for O=C(O)COc1cc(-c2ccc(OC(F)(F)F)cc2)ccc1OCCCCc1ccccc1 ?
59

Requested field: inhibition at 10 µM. Item: CC(C)(C)c1ccc(CN(C(=O)C(=O)O)c2ccc(-c3ccc(C#N)cc3)cc2)cc1
3

So what does the record say about inhibition at 10 µM for Cc1cccc(CN(C(=O)C(=O)O)c2ccc(-c3ccc(OC(F)(F)F)cc3)cc2)c1 ?
31

Data request, read-out inhibition at 10 µM, for CC(C)Oc1ccc(N(CCCCc2ccccc2)C(=O)C(=O)O)cc1-c1ccc(OC(F)(F)F)cc1
89

Quick one: inhibition at 10 µM of CC(C)(C)c1ccc(CN(C(=O)C(=O)O)c2ccc(Sc3ccc(OC(F)(F)F)cc3)cc2)cc1 ?
95

---

TARGET ENTITY: recombinant rat PAI-1 (Rattus norvegicus, UniProt P20961)
Sequence (P20961 24-402): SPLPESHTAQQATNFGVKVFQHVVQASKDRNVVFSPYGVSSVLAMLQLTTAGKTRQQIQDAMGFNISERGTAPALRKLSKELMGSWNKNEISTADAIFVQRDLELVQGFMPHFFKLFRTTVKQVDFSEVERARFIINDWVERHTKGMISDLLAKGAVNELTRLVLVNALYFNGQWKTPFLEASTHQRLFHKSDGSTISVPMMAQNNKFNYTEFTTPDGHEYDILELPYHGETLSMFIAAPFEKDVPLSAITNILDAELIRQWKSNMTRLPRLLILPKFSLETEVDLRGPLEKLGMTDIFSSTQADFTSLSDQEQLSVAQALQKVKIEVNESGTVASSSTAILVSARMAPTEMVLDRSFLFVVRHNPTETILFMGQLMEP
ASSAY TEXT: biochemical
EXPERIMENTAL CONDITIONS: read-out: Inhibition Rate of PAI-1 Activity (%)
PROPERTY: inhibition at 10 µM (%)
The reply should contain only the number, in %.

INSERT INTO measurements (compound, property, unit_descriptor, data_value) VALUES
  ('CCCCOc1ccc(N(Cc2ccc(C(C)(C)C)cc2)C(=O)C(=O)O)cc1-c1ccc(OC(F)(F)F)cc1 [Compound 193]', 'inhibition at 10 µM', '%', 70),
  ('CCCOc1ccc(N(Cc2ccc(C(C)(C)C)cc2)C(=O)C(=O)O)c(-c2ccc(OC(F)(F)F)cc2)c1 [Compound 198]', 'inhibition at 10 µM', '%', 89);

Query compound follows.
So what does the record say about inhibition at 10 µM for CC(C)(C)c1ccc(COc2ccc(Oc3ccc(OC(F)(F)F)cc3)cc2CCC(=O)O)cc1 [Compound 96] ?
96

---

inhibition at 0.1 µM: recorded values
TARGET ENTITY: recombinant human PAI-1 (Homo sapiens, UniProt P05121)
ASSAY TEXT: Test Example 2: Human PAI-1 Inhibitory Activity (pH 7.4 HEPES buffer, 10 minutes incubation with two-chain tPA)
Assay type: biochemical
Design: purchased Molecular Innovations, Inc
EXPERIMENTAL CONDITIONS: read-out: Inhibition Rate of PAI-1 Activity (%)

INSERT INTO results (molecule, data_value) VALUES
  ('CCCCC(Nc1cc(-c2ccc(OC(F)(F)F)cc2)ccc1Oc1ccc(C(C)(C)C)cc1)C(=O)O (stereo not drawn)', '1%'),
  ('CC(C)c1ccc(Oc2cc(-c3ccc(OC(F)(F)F)cc3)ccc2/C=C/C(=O)O)cc1', '1%');

inhibition at 0.1 µM of CC(C)(C)c1ccc(COc2ccc(-c3ccc(OC(F)(F)F)cc3)cc2N(Cc2ccccc2)C(=O)C(=O)O)cc1 on recombinant human PAI-1 (Homo sapiens, UniProt P05121)?
1%

---

TARGET ENTITY: recombinant human PAI-1 (Homo sapiens)
ASSAY TEXT: biochemical
EXPERIMENTAL CONDITIONS: read-out: Inhibition Rate of PAI-1 Activity (%)
Each item that follows carries a reported inhibition at 10 µM.
Report the figure in % without appending any unit label.

INSERT INTO results (compound, data_value) VALUES
  ('CC(C)(C)c1ccc(COc2c(/C=C/C(=O)O)cccc2-c2ccc(OC(F)(F)F)cc2)cc1', 81),
  ('CC(C)(C)c1ccc(COc2ccc(OCc3ccc(OC(F)(F)F)cc3)cc2CCC(=O)O)cc1', 67),
  ('O=C(O)/C=C/c1c(Oc2ccc(OC(F)(F)F)cc2)cccc1Oc1ccc(OC(F)(F)F)cc1', 40);

Test system recombinant human PAI-1 (Homo sapiens); read-out inhibition at 10 µM; what value for CC(C)(C)c1ccc(Oc2cc(-c3ccc(OC(F)(F)F)cc3)ccc2OCC(=O)O)cc1 ?
82

API: value(readout=inhibition at 10 µM, system=recombinant human PAI-1 (Homo sapiens)) for record CCCCCOc1ccc(-c2ccc(OC(F)(F)F)cc2)cc1N(CCCCCc1ccccc1)C(=O)C(=O)O
94

Record lookup: for recombinant human PAI-1 (Homo sapiens), what inhibition at 10 µM belongs to CC(C)(C)c1ccc(COc2c(Cl)cc(-c3ccc(OC(F)(F)F)cc3)cc2/C=C/C(=O)O)cc1 ?
67

API: value(readout=inhibition at 10 µM, system=recombinant human PAI-1 (Homo sapiens)) for record Cc1cc(-c2ccc(OC(F)(F)F)cc2)cc(/C=C/C(=O)O)c1OCc1ccc(C(C)(C)C)cc1
46

Requested read-out inhibition at 10 µM, target or system recombinant human PAI-1 (Homo sapiens), entry CC(c1ccc(C(C)(C)C)cc1)N(C(=O)C(=O)O)c1ccc(-c2ccc(OC(F)(F)F)cc2)cc1 (centres unmarked)
86
